- System: MOLT-4 leukemia
- assay: NCI tumour cell line growth inhibition, 48 h; in the data active means GI50 below about 0.43 µM; inactive means the rest
Select the correct class. Options are label 1 = active, label 0 = inactive and nothing else.

{"smi": "C=CCOC(=O)Nc1cccn([C@H](CC(C)C)C(=O)NCCC(C)C)c1=O", "categoryLabel": "label 0"}
{"smi": "O=C1c2cc(F)ccc2-c2c1c1ccc([N+](=O)[O-])cc1c(=O)n2CCCBr", "categoryLabel": "label 0"}
{"smi": "O=C([CH-]C(=O)c1ccccc1)c1ccccc1.O=C([CH-]C(=O)c1ccccc1)c1ccccc1.O=C([CH-]C(=O)c1ccccc1)c1ccccc1.[Cl-].[Hf+4]", "categoryLabel": "label 0"}

Input: Write down the call the test reported for this compound. Item: `CC(C)C(=O)c1c(C(F)(F)F)n([O-])c2ccccc2[n+]1=O`
Output: label 0

Input: Write down the call the test reported for this compound. Item: `CN(C)CCOc1ccccc1NC1=C(Cl)C(=O)C(Nc2ccccc2OCCN(C)C)=C(Cl)C1=O`
Output: label 0

Input: Write down the call the test reported for this compound. Item: `C=C1C(=O)O[C@H]2[C@H]1CC/C(CNC(=O)/C=C/c1ccccc1F)=C\CC[C@@]1(C)O[C@@H]21`
Output: label 0

Input: Write down the call the test reported for this compound. Item: `CNC(=O)c1cccc(C#Cc2cncnc2Nc2ccc(OCc3cccc(F)c3)c(Cl)c2)c1`
Output: label 0

Input: Write down the call the test reported for this compound. Item: `CN(C)CCS(=O)(=O)Nc1cc(-c2ccc3ncc(C#N)c(Nc4ccc(F)c(Cl)c4)c3c2)cnc1Cl`
Output: label 1

Input: Write down the call the test reported for this compound. Item: `CN(C)Cc1c(C(=O)NCCOc2ccc(C(=O)NO)cc2)oc2ccccc12`
Output: label 1

Cited source for all entries: PubChem BioAssay (NCI)
